Target: Metabotropic glutamate receptor 8 (Rattus norvegicus) (UniProt P70579)
Sequence (P70579 whole entry, looked up): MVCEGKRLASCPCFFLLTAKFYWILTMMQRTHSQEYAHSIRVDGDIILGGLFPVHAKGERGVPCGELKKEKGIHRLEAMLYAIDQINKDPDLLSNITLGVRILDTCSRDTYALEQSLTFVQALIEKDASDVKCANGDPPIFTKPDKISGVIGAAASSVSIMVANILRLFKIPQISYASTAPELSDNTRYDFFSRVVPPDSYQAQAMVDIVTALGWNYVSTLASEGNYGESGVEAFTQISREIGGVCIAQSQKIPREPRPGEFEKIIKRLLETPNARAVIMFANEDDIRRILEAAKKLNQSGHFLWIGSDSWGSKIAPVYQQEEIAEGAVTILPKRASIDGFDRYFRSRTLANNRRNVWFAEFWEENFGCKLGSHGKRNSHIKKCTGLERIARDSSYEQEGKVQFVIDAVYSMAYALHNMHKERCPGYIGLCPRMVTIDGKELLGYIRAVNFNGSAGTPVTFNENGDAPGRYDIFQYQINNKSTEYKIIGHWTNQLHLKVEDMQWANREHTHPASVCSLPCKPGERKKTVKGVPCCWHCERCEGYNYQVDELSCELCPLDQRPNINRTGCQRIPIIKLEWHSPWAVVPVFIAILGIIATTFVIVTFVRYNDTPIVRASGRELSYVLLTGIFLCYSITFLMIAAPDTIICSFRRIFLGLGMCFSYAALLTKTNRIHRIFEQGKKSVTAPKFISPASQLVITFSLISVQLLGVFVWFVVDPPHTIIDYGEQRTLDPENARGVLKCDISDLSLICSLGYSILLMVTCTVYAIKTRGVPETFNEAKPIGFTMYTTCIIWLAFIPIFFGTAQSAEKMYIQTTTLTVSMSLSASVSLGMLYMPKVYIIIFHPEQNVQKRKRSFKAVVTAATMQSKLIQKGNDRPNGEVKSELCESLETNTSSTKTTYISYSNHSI
Assay: mGluR8 Gi/Go-coupled signaling modulation – cell-based, rat, thallium flux, HTS, primary screen (AID 488969)
Recorded conditions: HEK293 rat mGluR8, GIRK thallium flux, FluoZin2; at 10 µM; stronger effect = higher value; submaximal glutamate (EC20) added with thallium
In all, about 110,000 compounds were measured (“z-score”: median about -0.1, highest 2% from about 2 on). The list comes from a sample in which the highest values are over-represented; it also holds close analogues and randomly drawn compounds.
Label Y when z-score is at or above -0.2; anything below gets N.

A selection of reference data follows.
CNC(=O)c1sc(-c2ccccc2)nc1C    N
c1ccc(COc2ccc(OCCCCN3CCCC3)cc2)cc1    Y
COC(=O)c1cc(NS(=O)(=O)c2ccc(NCc3cccnc3)c(N)c2)cc(C(=O)OC)c1    Y
COc1ccc(CC(=O)NNC(=O)CSc2nnc(Cc3ccc(OC)cc3)n2-c2ccccc2)cc1    N
c1ccc(COc2ccc(OCCCN3CCCCC3)cc2)cc1    Y

Exam item: decide whether the reported z-score for c1ccc(COc2ccc(OCCCCN3CCCCC3)cc2)cc1 is at least -0.2.
Y

Quick check: does O=c1c(-c2ccco2)[n+]([O-])c2ccccc2n1OCc1ccccn1 have z-score greater than or equal to -0.2?
Y

Test whether the molecule O=C(c1ccccc1)c1ccc(OCCCN2CCCCC2)cc1 records z-score of -0.2 or higher.
Y

Given COC(=O)COc1ccc(Cl)cc1C1Nc2ccccc2C(=O)N1c1ccc(OC)cc1 (centres undefined) , state whether its z-score is at least -0.2.
N

* * *

Target: Metabotropic glutamate receptor 8 (Rattus norvegicus)
Assay: mGluR8 Gi/Go-coupled signaling modulation – cell-based, rat, thallium flux, HTS, primary screen (AID 488969)
Recorded conditions: HEK293 rat mGluR8, GIRK thallium flux, FluoZin2; at 10 µM; stronger effect = higher value; submaximal glutamate (EC20) added with thallium
Over roughly 110,000 compounds, “z-score” has its median near -0.1; the highest 2% begin near 2. This excerpt belongs to a sample that is enriched for the highest values.
Assay endpoint: z-score
Answers are plain numbers.

CCCCNC(=S)N/N=C/c1ccc(C)s1    1.81

Dear colleague, could you please provide z-score for the compounds listed below?
1. O=C1c2cccc3cccc(c23)C(=O)N1OS(=O)(=O)c1ccc(Cl)cc1
2. CCCCNC(=S)Nc1ccccc1F

[0.123, 0.54]

* * *

Target: Metabotropic glutamate receptor 8 (Rattus norvegicus) (UniProt P70579)
Assay: mGluR8 Gi/Go-coupled signaling modulation – cell-based, rat, thallium flux, HTS, primary screen (AID 488969)
Recorded conditions: HEK293 rat mGluR8, GIRK thallium flux, FluoZin2; at 10 µM; stronger effect = higher value; submaximal glutamate (EC20) added with thallium
The full ranking holds about 110,000 compounds; the median of “z-score” is about -0.1, and the highest 2% start at about 2. The full list was thinned out, with the highest values kept by preference.
I would appreciate it if you labelled entries 1.0 when z-score is -0.1 or higher, otherwise 0.0.

Example entries begin here.
O=C(NCC(=O)N(Cc1cccs1)C(C(=O)NC1CCCCC1)c1ccco1)c1cccs1 (stereo unspecified)    0.0
CC1CCCCN1c1nnc(NC(=O)c2cc(-c3ccc(Br)cc3)on2)s1 (stereo unspecified)    0.0

Is z-score for O=C(NCC(=O)N(Cc1ccco1)C(C(=O)NC1CCCC1)c1cccnc1)c1ccco1 (stereo unspecified) at or above -0.1?
1.0

hey, is z-score for this one >= -0.1? Cc1ccc(NC(=O)c2csnn2)c(C)c1
1.0

Check the entry Cc1nc2ccccc2c(=O)n1/N=C/c1ccc(O)cc1 : does z-score equal or exceed -0.1?
1.0

hey, is z-score for this one >= -0.1? CCn1c2ccccc2c2cc(/C=N/n3cnnc3)ccc21
0.0

Given the entry O/N=C/c1cc(Cl)ccc1OCc1cccc2ccccc12 , answer whether its z-score meets or surpasses -0.1.
1.0

Reported z-score reaches at least -0.1 for FC(F)Sc1ccc(-n2cc(-c3ccccc3)[n+]3c2CCC3)cc1 ?
1.0

I'd appreciate it if you could say whether O=C(COC(=O)CCCOc1ccc(Cl)cc1Cl)NCc1ccc(F)cc1 has z-score at least equal to -0.1.
0.0

Could you tell me if the measured z-score of O=C(NCCc1csc(-c2cccnc2)n1)c1cccc2ccccc12 reaches -0.1 or more?
1.0

For this compound, is measured z-score -0.1 or higher? COc1ccc(CCNC(=O)C2CC(=O)N(c3ccccc3)C2)cc1OC (stereo unspecified)
1.0

// inclusive: z-score at least -0.1? input: COc1ccc(OC(C)C(=O)Nc2ccccc2C(F)(F)F)cc1 (stereo unspecified)
0.0

* * *

Target: Metabotropic glutamate receptor 8 (Rattus norvegicus) (UniProt P70579)
Assay: mGluR8 Gi/Go-coupled signaling modulation – cell-based, rat, thallium flux, HTS, primary screen (AID 488969)
Recorded conditions: HEK293 rat mGluR8, GIRK thallium flux, FluoZin2; at 10 µM; stronger effect = higher value; submaximal glutamate (EC20) added with thallium
Over roughly 110,000 compounds, “z-score” has its median near -0.1; the highest 2% begin near 2. The sample holds the highest values, similar compounds and a random draw of the others, so the mix is not that of the screen.
Assay endpoint: z-score
One number for each entry.

Completed entries (count: 5):
CCc1nc(NCc2ccco2)c2oc3ccccc3c2n1    -0.48
Cc1onc(-c2ccccc2Cl)c1C(=O)N1CCc2ccccc2C1    -0.95
COc1ccccc1-n1cnnc1SCC(=O)N1CC(=O)Nc2ccccc21    -0.0356
Cc1ccc(S(=O)(=O)N2CCC(C(=O)N3CCC[C@H]3C(=O)NCc3ccccc3)CC2)cc1    -0.265
Cc1ccc(C(=O)COc2ccccc2-c2ccccc2)cc1    -0.229

Would you mind listing z-score for each of the following compounds?
1. CC(OC(=O)Cc1coc2cc3c(cc12)CCC3)C(=O)NCc1ccc2c(c1)OCO2 (centres undefined)
2. Cc1ccc2c(CC(=O)NCc3ccc4c(c3)OCO4)coc2c1
3. Cc1cc(C(=O)OCC(=O)Nc2ccc(F)c(F)c2)c(C)o1
4. Cc1ccc(NC(=O)CN(C)S(=O)(=O)c2cnc[nH]2)cc1C

1. 0.706
2. 0.281
3. 0.0113
4. 2.45

* * *

Target: Metabotropic glutamate receptor 8 (Rattus norvegicus) (UniProt P70579)
Assay: mGluR8 Gi/Go-coupled signaling modulation – cell-based, rat, thallium flux, HTS, primary screen (AID 488969)
Recorded conditions: HEK293 rat mGluR8, GIRK thallium flux, FluoZin2; at 10 µM; stronger effect = higher value; submaximal glutamate (EC20) added with thallium
Over roughly 110,000 compounds, “z-score” has its median near -0.1; the highest 2% begin near 2. Shown is part of a subset that was picked to be rich in the highest values.
Classification field: enter Y for z-score values not below 0.4, N for values below it.

Before answering, review these 10 worked examples.
CCOc1ncccc1C(=O)OCC(=O)N1CC(=O)Nc2ccccc21    Y
C=CCn1c(CCNC(=O)c2cccs2)nnc1SCC(=O)c1ccc(Cl)cc1    N
c1ccc(CCNc2nc(-c3cccnc3)cs2)cc1    N
CSc1ncc(Cl)c(C(=O)NCc2ccc3c(c2)OCO3)n1    Y
C=CCn1c(=N)c(C(=O)OCC)cc2c(=O)n3cccc(C)c3nc21    N
O=C(CCc1nc(-c2ccccc2F)no1)NC1CCN(Cc2ccccc2)CC1    Y
Cc1ccc(C(=O)OCC(=O)N2CC(=O)Nc3ccccc32)s1    N
O/N=C1\CCc2cc(Cl)ccc21    N
Cc1cccc(NC(=S)N=Nc2c(O)n(CN3CCOCC3)c3ccccc23)c1C    Y
Cc1ccc(-c2noc(CCC(=O)NCC3CCN(Cc4cccc(C)c4)CC3)n2)cc1    Y

Reported z-score at or above 0.4? COc1ccc(-c2noc(CCC(=O)NCC3CCN(Cc4cccc(C)c4)CC3)n2)cc1
N

* * *

For each of the compounds below, state its z-score.
Target: Metabotropic glutamate receptor 8 (Rattus norvegicus) (UniProt P70579)
Assay: mGluR8 Gi/Go-coupled signaling modulation – cell-based, rat, thallium flux, HTS, primary screen (AID 488969)
Recorded conditions: HEK293 rat mGluR8, GIRK (G protein-gated inwardly rectifying potassium channel) thallium flux, FluoZin2; at 10 µM; stronger effect = higher value; submaximal glutamate (EC20) added with thallium
In all, about 110,000 compounds were measured (“z-score”: median about -0.1, highest 2% from about 2 on). The sample as a whole holds a higher share of the highest values than the screen did.
Answers are plain numbers.

CCc1ccc2c(c1)C1(NN=C(c3ccccc3)S1)C(=O)N2 (centres undefined)    0.104
CNc1cccc2c1C(=O)c1ccccc1C2=O    -0.102
CC(C)c1ccc2c(c1)C1(NN=C(c3ccccc3)S1)C(=O)N2 (centres undefined)    0.979

Now for another entry.
Quick one: z-score of CCOC(=O)c1c(-c2ccc(Cl)cc2)c(C#N)c(=O)n(N)c1N ?
-0.497
